System: AmpC P. aeruginosa (Pseudomonas aeruginosa, UniProt P24735)
Sequence (P24735 27-397): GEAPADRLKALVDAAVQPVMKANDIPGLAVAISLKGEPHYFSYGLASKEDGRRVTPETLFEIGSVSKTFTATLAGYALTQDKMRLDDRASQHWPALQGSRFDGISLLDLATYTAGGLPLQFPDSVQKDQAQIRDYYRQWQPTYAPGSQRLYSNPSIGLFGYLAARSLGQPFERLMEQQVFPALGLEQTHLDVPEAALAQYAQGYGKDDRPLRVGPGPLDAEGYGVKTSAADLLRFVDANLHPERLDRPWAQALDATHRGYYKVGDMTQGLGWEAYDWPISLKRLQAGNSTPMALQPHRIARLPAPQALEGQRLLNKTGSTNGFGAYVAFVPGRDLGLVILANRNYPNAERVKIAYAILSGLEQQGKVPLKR
Experiment Description: β-lactamase inhibitory activity, determination of IC50 (nitrocefin hydrolysis)
Task for the reader: assign each of the following molecules its reported pIC50.
# pIC50 is unitless: minus log10 of the molar concentration; print number only

Could you tell me which pIC50 is on file for Cn1cccc(C2=CCN3CC2N(OS(=O)(=O)[O-])C3=O)c1=O.[Na+] (centres unmarked) [Example 16, sulfate] ? 5.15

Can you share its pIC50? I mean this molecule: NCc1ncc(C2=CCN3CC2N(OS(=O)(=O)O)C3=O)s1 (centres unmarked) 5.49

Please give the measured pIC50 for this molecule: O=C1N2CC(c3nc4ccccc4s3)=CC(C2)N1OS(=O)(=O)[O-].[Na+] (centres unmarked) [Example 27, sulfate] 7.17

# input molecule: O=C1N2CC(c3cccnc3)=CC(C2)N1OS(=O)(=O)[O-].[Na+] (centres unmarked) ; wanted: its pIC50 6.72

Requested field: pIC50. Item: O=C1N2CC=C(c3cscn3)C(C2)N1OS(=O)(=O)[O-].[Na+] (centres unmarked) [Example 31, sulfate] 5.82

Please give the measured pIC50 for this molecule: Cn1cc(C2=CCN3CC2N(OS(=O)(=O)[O-])C3=O)cnc1=O.[Na+] (centres unmarked) [Example 15, sulfate] 5.46

# get_value(readout='pIC50', item= O=C1N2CC=C(c3ncco3)C(C2)N1OS(=O)(=O)[O-].[Na+] (centres unmarked) ) 6.03

Param item = O=C1N2CC=C(c3cnoc3)C(C2)N1OS(=O)(=O)[O-].[Na+] (centres unmarked) [Example 5, sulfate] ; retrieve measured pIC50. 5.82

Bench note: what pIC50 did Cn1cc(C2=CCN3CC2N(OS(=O)(=O)[O-])C3=O)ncc1=O.[Na+] (centres unmarked) [Example 14, sulfate] show? 5.72

Consider the molecule Cn1nccc1C1=CCN2CC1N(OS(=O)(=O)[O-])C2=O.[Na+] (centres unmarked) [Example 2, sulfate] and give its measured pIC50. 6.02

# query: pIC50 of entry O=C1N2CC(c3nc4cccnc4s3)=CC(C2)N1OS(=O)(=O)[O-].[Na+] (centres unmarked) [Example 40, sulfate] 6.64

I have this molecule here, O=C1N2CC=C(c3cnco3)C(C2)N1OS(=O)(=O)[O-].[Na+] (centres unmarked) , and I need its recorded pIC50. 5.70

What value of pIC50 has been recorded for this entry: COc1ncc(C2=CC3CN(C2)C(=O)N3OS(=O)(=O)[O-])s1.[Na+] (centres unmarked) [Example 39, sulfate] 6.62

# pIC50 lookup, item O=C1N2CC=C(c3cccnc3)C(C2)N1OS(=O)(=O)[O-].[Na+] (centres unmarked) 6.09

// query pIC50 value for entry Cn1ccc(C2=CCN3CC2N(OS(=O)(=O)[O-])C3=O)cc1=O.[Na+] (centres unmarked) [Example 13, sulfate] 5.49

# pIC50 lookup, item O=C1N2CC=C(c3cncnc3)C(C2)N1OS(=O)(=O)[O-].[Na+] (centres unmarked) [Example 10, sulfate] 5.59

Recorded pIC50 of O=C1N2CC(c3cnoc3)=CC(C2)N1OS(=O)(=O)[O-].[Na+] (centres unmarked) [Example 26, sulfate] , please. 7.13
